Give kinase still bound, per cent of control for every item shown.
Target: UniProt:Q9P289
Sequence (Q9P289 whole entry, looked up): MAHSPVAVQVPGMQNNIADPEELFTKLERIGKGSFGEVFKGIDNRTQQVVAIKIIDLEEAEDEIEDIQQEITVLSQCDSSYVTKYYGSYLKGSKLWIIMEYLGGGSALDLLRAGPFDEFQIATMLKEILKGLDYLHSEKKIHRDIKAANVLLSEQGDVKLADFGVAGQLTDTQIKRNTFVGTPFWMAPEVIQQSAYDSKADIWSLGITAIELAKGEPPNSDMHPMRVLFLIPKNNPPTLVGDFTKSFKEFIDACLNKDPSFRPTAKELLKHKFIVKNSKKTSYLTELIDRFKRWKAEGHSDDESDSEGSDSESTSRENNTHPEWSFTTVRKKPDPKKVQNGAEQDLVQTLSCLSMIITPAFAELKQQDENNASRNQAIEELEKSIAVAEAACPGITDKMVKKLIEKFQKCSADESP
Test: KINOMEscan competition binding
Details: compound 1.0 µM
One number for each entry, in %.

- CN(C)C/C=C/C(=O)Nc1cccc(C(=O)Nc2ccc(Nc3nccc(-c4c(-c5ccccc5)nn5ccccc45)n3)cc2)c1: 85
- CN(C)C/C=C/C(=O)Nc1cccc(C(=O)Nc2ccc(Nc3nccc(-c4cccnc4)n3)cc2)c1: 34
- Cc1cc(NC(=O)c2cccc(NC(=O)/C=C/CN(C)C)c2)ccc1Nc1nccc(-c2cccnc2)n1: 82

Assign kinase still bound, per cent of control to the following record: CN(C)C/C=C/C(=O)Nc1cccc(C(=O)Nc2ccc(Nc3nccc(/C(C#N)=C4\Nc5ccccc5S4)n3)cc2)c1
100

// data source = the kinase profiling compilation of Christmann-Franck et al. (2016)
